target: rat mGluR5 (Rattus norvegicus, UniProt P31424); assay: mGluR5 calcium mobilization assay (FDSS, Fluo-4) in HEK 293A cells stably expressing rat mGluR5; conditions: HEK cells transfected with rat mGluR5; antagonism of glutamate EC80 response; ± = standard error of at least three experiments
Sequence (P31424 21-1171 isoform P31424-2 limits assumed): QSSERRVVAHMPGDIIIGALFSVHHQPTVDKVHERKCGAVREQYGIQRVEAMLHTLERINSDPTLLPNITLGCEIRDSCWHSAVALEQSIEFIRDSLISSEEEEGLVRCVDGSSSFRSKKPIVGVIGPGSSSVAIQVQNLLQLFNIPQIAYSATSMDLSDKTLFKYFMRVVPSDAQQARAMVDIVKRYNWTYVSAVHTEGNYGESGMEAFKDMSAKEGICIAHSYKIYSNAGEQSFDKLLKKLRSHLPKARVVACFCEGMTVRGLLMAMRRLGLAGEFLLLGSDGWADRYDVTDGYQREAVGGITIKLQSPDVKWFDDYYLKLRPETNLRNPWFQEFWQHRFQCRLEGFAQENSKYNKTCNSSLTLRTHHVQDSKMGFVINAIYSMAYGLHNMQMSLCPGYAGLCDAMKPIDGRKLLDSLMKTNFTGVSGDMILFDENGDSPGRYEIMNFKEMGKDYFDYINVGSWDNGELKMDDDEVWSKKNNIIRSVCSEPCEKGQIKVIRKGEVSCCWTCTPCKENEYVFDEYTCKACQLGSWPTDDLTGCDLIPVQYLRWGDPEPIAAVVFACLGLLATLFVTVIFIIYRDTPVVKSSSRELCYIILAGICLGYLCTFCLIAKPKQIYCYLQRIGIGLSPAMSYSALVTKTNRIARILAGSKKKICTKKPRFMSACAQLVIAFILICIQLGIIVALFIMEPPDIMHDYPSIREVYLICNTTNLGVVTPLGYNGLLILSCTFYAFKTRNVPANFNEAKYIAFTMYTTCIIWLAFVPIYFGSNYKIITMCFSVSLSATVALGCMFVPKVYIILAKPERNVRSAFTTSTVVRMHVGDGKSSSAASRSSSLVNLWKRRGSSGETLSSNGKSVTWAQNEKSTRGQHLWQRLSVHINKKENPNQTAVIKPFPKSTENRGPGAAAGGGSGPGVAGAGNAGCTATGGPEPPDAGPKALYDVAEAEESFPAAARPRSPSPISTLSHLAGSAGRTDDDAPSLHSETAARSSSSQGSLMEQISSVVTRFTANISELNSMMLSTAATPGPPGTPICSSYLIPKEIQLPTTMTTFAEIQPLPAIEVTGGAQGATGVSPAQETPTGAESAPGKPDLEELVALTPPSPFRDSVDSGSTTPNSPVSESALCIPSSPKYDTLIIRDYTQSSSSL
OBSERVED PROPERTY: IC50 (nM)
State just the number; it will be interpreted in nM.

Reference set, count: 2
1. Cc1ccc(NC(=O)c2cc(Oc3cncc(C)c3)cn3ncnc23)nc1
267
2. O=C(Nc1ccc(F)cn1)c1cc(Oc2cncc(Cl)c2)cn2ccnc12
76

response.value for "COc1ccc(NC(=O)c2cc(Oc3cncc(F)c3)cn3cnnc23)nc1" (field: IC50) = 82

response.value for "COc1ccc(NC(=O)c2cc(Oc3cncc(C)c3)cn3ncnc23)nc1" (field: IC50) = 275

response.value for COc1cncc(Oc2cc(C(=O)Nc3cccc(OC)n3)c3ncnn3c2)c1 [drawing 305] (field: IC50) = 334

response.value for "O=C(Nc1ccccn1)c1cc(Oc2cncc(Cl)c2)cn2cnnc12" (field: IC50) = 176

response.value for "Cc1cccc(NC(=O)c2cc(Oc3cnc(F)c(F)c3)cn3ncnc23)n1" (field: IC50) = 128

response.value for "CCc1cccc(NC(=O)c2cc(Oc3cnc(F)c(F)c3)cn3ncnc23)n1" (field: IC50) = 559

response.value for "O=C(Nc1nc(C2CC2)cs1)c1cc(Oc2cncnc2)cn2ncnc12" (field: IC50) = 161

response.value for "[2H]c1nc(NC(=O)c2cc(Oc3cncc(F)c3)cn3ncnc23)c([2H])c([2H])c1[2H]" (field: IC50) = 43

response.value for "Cc1csc(NC(=O)c2cc(Oc3cncc(C#N)c3)cn3cnnc23)n1" (field: IC50) = 1210

response.value for CCc1cccc(NC(=O)c2cc(Oc3cncc(OC)c3)cn3cnnc23)n1 [drawing 282] (field: IC50) = 1420

response.value for "Cc1csc(NC(=O)c2cc(Oc3cccnc3)cn3ncnc23)n1" (field: IC50) = 43

response.value for "Cc1nc2c(C(=O)Nc3ccccn3)cc(Oc3cncc(F)c3)cn2n1" (field: IC50) = 97

response.value for "Cc1csc(NC(=O)c2cc(Oc3cncc(Cl)c3)cn3ncnc23)n1" (field: IC50) = 62

response.value for "CCc1cccc(NC(=O)c2cc(Oc3cncc(C)c3)cn3ncnc23)n1" (field: IC50) = 483

response.value for "O=C(Nc1cccc(F)n1)c1cc(Oc2cncc(F)c2)cn2ncnc12" (field: IC50) = 31

response.value for "COc1cccc(NC(=O)c2cc(Oc3cncnc3)cn3cnnc23)n1" (field: IC50) = 162

----------
molecular target: rat mGluR5 (Rattus norvegicus, UniProt P31424); assay: mGluR5 calcium mobilization assay (FDSS, Fluo-4) in HEK 293A cells stably expressing rat mGluR5; conditions: HEK cells transfected with rat mGluR5; antagonism of glutamate EC80 response; ± = standard error of at least three experiments
OBSERVED PROPERTY: IC50

Reference set, count: 4
1) [2H]c1nc(NC(=O)c2cc(Oc3cncnc3)cn3cnnc23)c([2H])c([2H])c1[2H]
469 nM
2) CCc1cccc(NC(=O)c2cc(Oc3cncc(F)c3)cn3ccnc23)n1
248 nM
3) COc1cncc(Oc2cc(C(=O)Nc3cccc(OC)n3)c3ncnn3c2)c1 [drawing 289]
416 nM
4) O=C(Nc1ccccn1)c1cc(Oc2cncc(Cl)c2)cn2ncnc12
32 nM

Here is another compound to look at.
"O=C(Nc1cccc(F)n1)c1cc(Oc2cncnc2)cn2ncnc12" tested on rat mGluR5 (Rattus norvegicus, UniProt P31424) gave IC50: 117 nM

----------
target: rat mGluR5 (Rattus norvegicus); test: mGluR5 calcium mobilization assay (FDSS, Fluo-4) in HEK 293A cells stably expressing rat mGluR5; conditions: HEK cells transfected with rat mGluR5; antagonism of glutamate EC80 response; ± = standard error of at least three experiments
pIC50: −log10 of the molar value.
Record 1 whenever pIC50 is at 7 or higher; record -1 when lower.

1) COc1cncc(Oc2cc(C(=O)Nc3cccc(OC)n3)c3nncn3c2)c1
-1

Exercise: Could you tell me if the measured pIC50 of "COc1cncc(Oc2cc(C(=O)Nc3ccc(F)c(C)n3)c3ncnn3c2)c1" reaches 7 or more?
Solution: -1

Exercise: Could you tell me if the measured pIC50 of "O=C(Nc1cccc(F)n1)c1cc(Oc2cncc(F)c2)cn2ccnc12" reaches 7 or more?
Solution: 1

Exercise: Could you tell me if the measured pIC50 of "Cc1ncc(Oc2cc(C(=O)Nc3ccc(F)cn3)c3nncn3c2)cn1" reaches 7 or more?
Solution: -1

Exercise: Could you tell me if the measured pIC50 of "Cc1cccc(NC(=O)c2cc(Oc3cccnc3)cn3ncnc23)n1" reaches 7 or more?
Solution: 1

Exercise: Could you tell me if the measured pIC50 of "CCc1cccc(NC(=O)c2cc(Oc3cncc(F)c3)cn3c(C)nnc23)n1" reaches 7 or more?
Solution: -1

Exercise: Could you tell me if the measured pIC50 of "CCc1cccc(NC(=O)c2cc(Oc3cnc(C)nc3)cn3cnnc23)n1" reaches 7 or more?
Solution: -1

Exercise: Could you tell me if the measured pIC50 of "COc1ccc(NC(=O)c2cc(Oc3cncc(F)c3)cn3ccnc23)nc1" reaches 7 or more?
Solution: 1

Exercise: Could you tell me if the measured pIC50 of "COc1cccc(NC(=O)c2cc(Oc3cncc(Cl)c3)cn3cnnc23)n1" reaches 7 or more?
Solution: -1

----------
target: UniProtKB P31424; assay: mGluR5 calcium mobilization assay (FDSS, Fluo-4) in HEK 293A cells stably expressing rat mGluR5; details: HEK cells transfected with rat mGluR5; antagonism of glutamate EC80 response; ± = standard error of at least three experiments
OBSERVED PROPERTY: pIC50
API: returns pIC50 as number; meaning -log10 of concentration in mol/L.

Reference set, count: 5
1) Cc1nc(NC(=O)c2cc(Oc3cccnc3)cn3ncnc23)ccc1F
6.92
2) COc1ccc(NC(=O)c2cc(Oc3cncc(Cl)c3)cn3ncnc23)nc1
7.04
3) [2H]c1nc(NC(=O)c2cc(Oc3cncc(OC)c3)cn3ccnc23)c([2H])c([2H])c1[2H]
7.34
4) O=C(Nc1ccc(F)cn1)c1cc(Oc2cccnc2)cn2ncnc12
7.60
5) Cc1csc(NC(=O)c2cc(Oc3cncc(F)c3)cn3ncnc23)n1
7.31

response.value for "[2H]c1nc(NC(=O)c2cc(Oc3cncc(OC)c3)cn3cnnc23)c([2H])c([2H])c1[2H]" (field: pIC50) = 5.91

response.value for "Cc1csc(NC(=O)c2cc(Oc3cncc(C#N)c3)cn3ccnc23)n1" (field: pIC50) = 6.90

response.value for "O=C(Nc1ccccn1)c1cc(Oc2cncc(Cl)c2)cn2ccnc12" (field: pIC50) = 7.48

response.value for "Cc1csc(NC(=O)c2cc(Oc3cnc(F)c(F)c3)cn3ncnc23)n1" (field: pIC50) = 6.92

response.value for "COc1cncc(Oc2cc(C(=O)Nc3ccc(F)c(C)n3)c3nncn3c2)c1" (field: pIC50) = 4.99

----------
Catalogue of log10(IC50) readings, one per entry.
molecular target: rat mGluR5 (Rattus norvegicus); test: mGluR5 calcium mobilization assay (FDSS, Fluo-4) in HEK 293A cells stably expressing rat mGluR5; settings: HEK cells transfected with rat mGluR5; antagonism of glutamate EC80 response; ± = standard error of at least three experiments
Heads up: the numbers are on a log10 scale; they represent IC50 in nM.

1. Cc1cccc(NC(=O)c2cc(Oc3cncc(F)c3)cn3nc(C)nc23)n1
2.30
2. [2H]c1nc(NC(=O)c2cc(Oc3cncc(OC)c3)cn3ncnc23)c([2H])c([2H])c1[2H]
2.02

"[2H]c1nc(NC(=O)c2cc(Oc3cnc(C)nc3)cn3cnnc23)c([2H])c([2H])c1[2H]" tested on rat mGluR5 (Rattus norvegicus) gave log10(IC50): 3.90

O=C(Nc1ccc(F)cn1)c1cc(Oc2cncc(F)c2)cn2cnnc12 [drawing 160] tested on rat mGluR5 (Rattus norvegicus) gave log10(IC50): 1.45

"COc1cncc(Oc2cc(C(=O)Nc3cccc(C)n3)c3ncnn3c2)c1" tested on rat mGluR5 (Rattus norvegicus) gave log10(IC50): 2.24

"N#Cc1cncc(Oc2cc(C(=O)Nc3ccc(F)cn3)c3nncn3c2)c1" tested on rat mGluR5 (Rattus norvegicus) gave log10(IC50): 3.16

"Cc1cncc(Oc2cc(C(=O)Nc3ccc(F)cn3)c3ncnn3c2)c1" tested on rat mGluR5 (Rattus norvegicus) gave log10(IC50): 1.97

"N#Cc1cncc(Oc2cc(C(=O)Nc3ccc(F)cn3)c3nccn3c2)c1" tested on rat mGluR5 (Rattus norvegicus) gave log10(IC50): 1.71

"Cc1ccc(NC(=O)c2cc(Oc3cncc(F)c3)cn3ccnc23)nc1" tested on rat mGluR5 (Rattus norvegicus) gave log10(IC50): 1.68

"Cc1csc(NC(=O)c2cc(Oc3cncc(F)c3F)cn3ncnc23)n1" tested on rat mGluR5 (Rattus norvegicus) gave log10(IC50): 1.92

"Cc1nc2c(C(=O)Nc3ccc(F)c(C)n3)cc(Oc3cncc(F)c3)cn2n1" tested on rat mGluR5 (Rattus norvegicus) gave log10(IC50): 2.93

"Cc1nc2c(C(=O)Nc3cccc(F)n3)cc(Oc3cncc(F)c3)cn2n1" tested on rat mGluR5 (Rattus norvegicus) gave log10(IC50): 2.61

"Cc1cncc(Oc2cc(C(=O)Nc3nc(C)cs3)c3ncnn3c2)c1" tested on rat mGluR5 (Rattus norvegicus) gave log10(IC50): 2.11

"CCc1cccc(NC(=O)c2cc(Oc3cncc(F)c3)cn3ncnc23)n1" tested on rat mGluR5 (Rattus norvegicus) gave log10(IC50): 2.00

"Cc1ccc(NC(=O)c2cc(Oc3cccnc3)cn3ncnc23)nc1" tested on rat mGluR5 (Rattus norvegicus) gave log10(IC50): 1.70

"O=C(Nc1nc(C(F)(F)F)cs1)c1cc(Oc2cncnc2)cn2ncnc12" tested on rat mGluR5 (Rattus norvegicus) gave log10(IC50): 2.73

"[2H]c1nc(NC(=O)c2cc(Oc3cncc(Cl)c3)cn3cnnc23)c([2H])c([2H])c1[2H]" tested on rat mGluR5 (Rattus norvegicus) gave log10(IC50): 2.34

"N#Cc1cncc(Oc2cc(C(=O)Nc3ccccn3)c3nncn3c2)c1" tested on rat mGluR5 (Rattus norvegicus) gave log10(IC50): 2.83
